Reported NI activity, EC50 (NI-ELLA), NC20 virus is given for each of the following binders.
molecular target: recombinant trimeric HA of A/New Caledonia/20/1999 (H1N1) (Influenza A virus A/New …, UniProt Q6WG00); assay: cell-based or functional assay
Note: a bare number is incomplete; add the unit.

binder: F11 IgA2m2 polymer (antibody, V domains shown) VH: QVQLVQSGAEVKRPGSSVRVSCRTSGGSFTSFAISWVRQAPGQGLEWMGRITRILGVPNYAQKFQGRVTITADMPTTTAYLDLTNLRSEDTAVYYCARDSGTSHGDFDYWGQGTLVTVSS VL: EIVLTQSPVTLSLSPGERATLSCRASQNVINSLVWYQQKPGQAPRLLIYGASNRATGIPARFRGSGSGTDFTLTIDSLEPEDIAVYYCQQRGTWLWSFGQGTKVEIK
assay result: 0.0162 µg/mL
--
binder: F11 IgA1 polymer (antibody, V domains shown) VH: QVQLVQSGAEVKRPGSSVRVSCRTSGGSFTSFAISWVRQAPGQGLEWMGRITRILGVPNYAQKFQGRVTITADMPTTTAYLDLTNLRSEDTAVYYCARDSGTSHGDFDYWGQGTLVTVSS VL: EIVLTQSPVTLSLSPGERATLSCRASQNVINSLVWYQQKPGQAPRLLIYGASNRATGIPARFRGSGSGTDFTLTIDSLEPEDIAVYYCQQRGTWLWSFGQGTKVEIK
assay result: 0.106 µg/mL
--
binder: F11 IgA2m2 monomer (antibody, V domains shown) VH: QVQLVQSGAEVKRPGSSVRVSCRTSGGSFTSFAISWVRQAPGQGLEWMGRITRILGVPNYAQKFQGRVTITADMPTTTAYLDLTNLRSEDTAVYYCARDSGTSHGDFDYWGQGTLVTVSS VL: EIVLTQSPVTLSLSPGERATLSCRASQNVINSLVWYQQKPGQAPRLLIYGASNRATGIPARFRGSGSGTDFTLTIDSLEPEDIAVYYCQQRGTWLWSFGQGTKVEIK
assay result: 0.0617 µg/mL

Consider now this further binder.
## Input Report measured NI activity, EC50 (NI-ELLA), NC20 virus; entry is F11 IgA1 monomer (antibody, V domains shown) VH: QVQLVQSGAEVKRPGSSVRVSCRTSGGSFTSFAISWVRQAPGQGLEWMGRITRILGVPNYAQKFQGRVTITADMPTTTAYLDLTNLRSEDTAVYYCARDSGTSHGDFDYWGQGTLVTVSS VL: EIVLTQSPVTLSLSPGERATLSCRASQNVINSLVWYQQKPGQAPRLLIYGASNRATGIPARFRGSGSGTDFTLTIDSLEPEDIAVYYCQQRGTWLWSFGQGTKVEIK
## Output 0.148 µg/mL
